# reported TGI; entries follow
# Test system: BT-549 breast
# test protocol: NCI tumour cell line growth inhibition, 48 h
readout type: TGI

compound="Cc1ccc([N+](=O)[O-])cc1S(=O)(=O)Nc1ccc(C2=NOC(c3ccccc3O)C2)cc1 (configuration not stated)" readout_type=TGI value_measured="60.3 µM"
compound=FC(F)(F)c1ccc(NCc2nc3ccccc3[nH]2)cc1 readout_type=TGI value_measured="97.5 µM"
compound="COC(=O)[C@@H]1COC(C(C)(C)C)N1C(=O)C(c1ccccc1)c1ccccc1 (some centres not stated)" readout_type=TGI value_measured="> 100 µM"
compound=CC1(C)OC(=O)C(=Cc2ccc([N+](=O)[O-])s2)C(=O)O1 readout_type=TGI value_measured="26.8 µM"
compound=CNCCNc1nc2ccccc2c2c(=O)c3cccc(C)c3sc12 readout_type=TGI value_measured="12.1 µM"
compound="CCOP(=O)(OCC)C(Nc1cccc(F)c1)c1ccc(N(C)C)cc1 (configuration not stated)" readout_type=TGI value_measured="> 100 µM"
compound=CNN1C(=O)c2c(C)c(C)c(C#N)c(N)c2C1=O readout_type=TGI value_measured="> 100 µM"
